# reported Plant response rating, Waterhemp; entries follow
# Test system: waterhemp (common waterhemp, Amaranthus rudis)
# Test method notes: Test C greenhouse herbicide test, pre- and postemergence
# Assay type: in vivo
# Study conditions: Preemergence, 62 g ai/ha; scale 0 to 100, 0 is no effect, 100 is complete control
Metric name: Plant response rating, Waterhemp

Smiles string | Metric name | Measured
Cc1ccc2sc(C)c(-c3c(O)c(C)nn(C)c3=O)c2c1 | Plant response rating, Waterhemp | 100
CCOC(=O)Oc1c(C)nn(C)c(=O)c1-c1c(C)sc2ccc(C)cc12 | Plant response rating, Waterhemp | 100
Cc1cc(C)c2sc(C)c(-c3c(OC(=O)OCCCl)c(C)nn(C)c3=O)c2c1 | Plant response rating, Waterhemp | 80

---

# Test system: oilseed rape (Brassica napus)
# Test method notes: Test D controlled growth environment herbicide test, pre- and postemergence
# Assay type: in vivo
# Study conditions: Postemergence, 31 g ai/ha; scale 0 to 100 (0 no effect, 100 complete control)
Checkbox rule: Oilseed Rape plant response rating lower than 60 = Met; Oilseed Rape plant response rating not lower than 60 = Not met.

Smiles string | Class label
CCC(=O)Oc1c(C)nn(C)c(=O)c1-c1c(C)sc2ccc(C)cc12 | Met
Cc1cc(C)c2sc(C)c(-c3c(OC(=O)OC(C)C)c(C)nn(C)c3=O)c2c1 | Not met
COc1nn(C)c(=O)c(-c2c(C)ccc3ccccc23)c1OC(=O)OC(C)C | Not met
CCC(=O)Oc1c(C)nn(C)c(=O)c1-c1c(C)sc2c(C)cc(C)cc12 | Not met

---

# Test system: kochia (Kochia scoparia)
# Test method notes: Test A greenhouse herbicide test, pre- and postemergence
# Format: in vivo
# Study conditions: Postemergence, 500 g ai/ha; visual rating after approx. 10 d, 0 to 100 scale (0 no effect, 100 complete control)
Metric name: Plant response rating, Kochia

Smiles string | Measured
CC(=O)Oc1c(C)nn(C)c(=O)c1-c1c(C(F)(F)F)ccc2ccccc12 | 90
CC(=O)Oc1c(C)nn(C)c(=O)c1-c1c([N+](=O)[O-])ccc2ccccc12 | 90
C#Cc1ccc2cccc(-c3c(O)c(C)nn(C)c3=O)c2c1 | 70

---

# System: nutsedge, yellow (yellow nutsedge, Cyperus esculentus)
# Test method notes: Test C greenhouse herbicide test, pre- and postemergence
# Format: in vivo
# Study conditions: Postemergence, 125 g ai/ha; scale 0 to 100, 0 is no effect, 100 is complete control

Smiles string | Plant response rating, Nutsedge, Yellow
C#CCOC(=O)Oc1c(C)nn(C)c(=O)c1-c1c(C)sc2ccc(C)cc12 | 80
CCC(=O)Oc1c(C)nn(C)c(=O)c1-c1c(C)sc2ccc(Cl)cc12 | 80
Cc1cc(C)c2sc(C)c(-c3c(OC(=O)OC(C)C)c(C)nn(C)c3=O)c2c1 | 80

---

# Test system: ryegrass, Italian (Italian ryegrass, Lolium multiflorum)
# Test method notes: Test A greenhouse herbicide test, pre- and postemergence
# Type: in vivo
# Study conditions: Preemergence, 500 g ai/ha; 0 to 100 scale where 0 is no effect and 100 is complete control

Smiles string | Plant response rating, Ryegrass, Italian
CC(=O)Oc1c(C)nn(C)c(=O)c1-c1ccc(F)c2ccccc12 | 100
Cc1n[nH]c(=O)c(-c2cccc3ccccc23)c1OC(F)F | 20
Cc1nn(C)c(=O)c(-c2c(C)sc3ccc(Cl)cc23)c1O | 100
Cc1nn(C)c(=O)c(-c2ccc(Cl)c3ccccc23)c1OS(=O)(=O)N(C)C | 40
CCOC(=O)Oc1c(C)nn(C)c(=O)c1-c1c(C)sc2c(C)cc(C)cc12 | 100
COc1nn(C)c(=O)c(-c2c(C)sc3ccc(Cl)cc23)c1O | 100
CSCC(=O)Oc1c(C)nn(C)c(=O)c1-c1cccc2ccccc12 | 100
CCOC(=O)Oc1c(C)nn(C)c(=O)c1-c1c(C)sc2ccc(C)cc12 | 90
COC(=O)Cn1nc(C)c(O)c(-c2cccc3ccccc23)c1=O | 20
CCC(=O)Oc1c(C)nn(C)c(=O)c1-c1c(C)sc2ccc(Cl)cc12 | 100
CCC(=O)Oc1c(C)nn(C)c(=O)c1-c1c(C(F)(F)F)ccc2ccccc12 | 100
CC(=O)Oc1c(C)nn(C)c(=O)c1-c1c([N+](=O)[O-])ccc2ccccc12 | 100
